Values were extracted from the COVID Moonshot data (paper PMC11187573).

details: 100.0 µM
Measurement type: relative solubility at 100 uM

Some compounds with known relative solubility at 100 uM results, for comparison:
>>> print(df.to_string())
                                   compound  observed_measurement
0     CCN(C)CC1CCN(c2ccc(S(N)(=O)=O)cc2)CC1                  0.98
1  CC(C)(Cn1c(C2CCC(=O)N2)nnc1N1CCCC(C(N)=O)C1)c1ccccc1F (configuration not stated)                  0.99
2           O=C(C1CCN(c2ccncc2)CC1)N1CCCCC1                     1

Lab note: CN(C)c1ccc(N(Cc2ccsc2)C(=O)Cn2nnc3ccccc32)cc1 gave relative solubility at 100 uM of 0.48

So for Nc1ncc(S(=O)(=O)NCc2cccc(Cl)c2)cn1 , the logged relative solubility at 100 uM turned out to be 0.97

Per the records, this compound ( CCC(NC(=O)C(C)n1cncn1)c1ccccc1OCC(=O)N1CCCC1 (configuration not stated) ) has relative solubility at 100 uM equal to 0.99

Record O=C(NCC1COc2ccccc2O1)c1cc(=O)[nH]c2cc(F)ccc12 (configuration not stated) . Reported relative solubility at 100 uM: 0.62

relative solubility at 100 uM reported for this compound O=C(CCl)N1CCN(Cc2cccc(CNC(=O)N3CCOCC3)c2)CC1 : 1

// relative solubility at 100 uM value for N#Cc1ccnc(CNC(=O)Cc2c[nH]c3ncccc23)c1 : 0.98

Record CCSCC1CCN(c2ccc(S(N)(=O)=O)cc2)CC1 . Reported relative solubility at 100 uM: 1.01

# relative solubility at 100 uM (compound: O=C(Cc1ccccc1OC1CCOC1)OCc1cnn[nH]1 (configuration not stated) ) is 1

Value of measured relative solubility at 100 uM for the entry C=CC(=O)NCC(=O)N(CCN1CCOCC1)Cc1ccccc1Cl : 1

Consider N#Cc1ccc(O)c(NC(=O)Cc2cccnc2)c1 . Its measured relative solubility at 100 uM is 0.95

----------
inhibition for assorted molecules
molecular target: SARS-CoV-2 Main Protease (SARS-CoV-2); settings: 20.0 µM
Report only the number, with the unit % understood.

                                   molecule  observed_measurement
0  CN1CCN(C(=O)Cc2c[nH]c3ncc(C(=O)NCCc4c[nH]c5ccc(F)cc45)cc23)CC1                  -1.5
1  C=CC(=O)N(c1ccc(CCC#N)cc1)C(C(=O)NC(C)(C)C)c1cccnc1 (configuration not stated)                  1.48
2       O=C(Cc1cccc(Cl)c1)Nn1cnc2ccccc2c1=O                  70.9
3  COC(=O)c1c(C)nn(C(=O)c2cccs2)c1-c1snnc1C                    35

In plain terms, CC(C)N(C(=O)Cc1c(O)c2ccccc2[nH]c1=O)C(C)C has a documented inhibition of -0.198

Input C=CC(=O)N(c1ccc(C(F)(F)F)cc1)C(C(=O)NCCc1cccc(F)c1)c1cncc(C#N)c1 (configuration not stated) . Output inhibition: 53.5

For reference, reported inhibition for O=C(CNc1c(-c2ccccc2)nc2ccccn12)N/N=C/c1cccc2ccccc12 stands at 13.8
